# Test system: MS2 coat protein
# assay-overview: apparent KD of MS2 coat protein; designed switch direction (-1 OFF switch, 1 ON switch): -1; higher = weaker reporter binding
# particulars: input ligand: FMN 200 uM

{"columns": ["entry-sequence", "system-name", "apparent KD of MS2 coat protein"],
 "data": [
  ["AGCCUGUAAGUAGGAUAUAUGAUCAGGAAUGAAAUAGAAGGGCUUAGUGGACAUGAGGAUCACCCAUGUCAAUGGGUUCAUGCA [Edria] (Eterna round: R96, puzzle: Exclusion NG 1)", "MS2 coat protein", "15 nM"],
  ["GGAUCGAGUGUGAGGAUAUGCUGGUCCUUGGAUCAGCAGAAGGCACAUGAGGAUCACCCAUGUGAUACCGAUCC [Eli bmx4 4.67] (Eterna round: R97, puzzle: Brourd's mod of Exclusion 4)", "MS2 coat protein", "736 nM"],
  ["GCAAGCUUUUAGAUUUUCAACAUGAGGAUCACCCAUGUUCGUCUUGUGCUCGGGCUUGGGCGGUGUCCGGGUUUGGG [JL TOV1 3.76 sellena mod] (Eterna round: R97, puzzle: Sensor, turn-off variant 1)", "MS2 coat protein", "36.2 nM"],
  ["UCUCGGUAAGGAUAUGCGCCGGGAUGAAGAUCCCGAAGCAUGCAGAAGGUACAUGAGGAUCACCCAUGUCUGUU [Eternabot (L1) Solution 76] (Eterna round: R97, puzzle: Exclusion 4)", "MS2 coat protein", "47.2 nM"],
  ["GAAAAGUGAGGAUAUCGACAUCUCGACAUGAGGAUCACCCAUGUUGUAGGUCGUGUCGAGCGAGAAGGCACAAUAA [EX5 B.9] (Eterna round: R97, puzzle: Exclusion 5)", "MS2 coat protein", "48.2 nM"]
]}

====

# Tested on: K4 kissing-loop RNA reporter;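 further: bound reporter read as fluorescence of individual clusters on recovered sequencing chips by microscopy, with normalized cluster intensities fitted with a binding model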
# assay-overview: apparent KD of K4 kissing-loop reporter; higher = weaker reporter binding
# particulars: Eterna round: R107; input ligand: theophylline 20 uM

{"columns": ["entry-sequence", "unit-name", "apparent KD of K4 kissing-loop reporter"],
 "data": [
  ["CCUUGGGCACGCCCACUAGGAAGCUAGUCUAAGGAUAUCGACUGGACGAGAAGGUAGACGGACCCGAGUGAUGUUCGGACAUAGG [theeternabot_sameState_KL_FMN_A_1]", "nM", 179],
  ["GCAGUGAUGUUGCGCAGGUACAGUGGAGUGCGAGGACCGGUACGGCCGCCACUCGUACAGAACUAGCUAAUAUAUGGAUAGGUGA [VIII]", "nM", 347],
  ["GCAUAUACGAGAAGGAGCGUGCAUGACGAAUUAAUCAUCGACCUUAGUGAUGUUAAGGACGCACAGGUAGGUCGCUCGUGUAUGC [#04 K4 Arginine B Same State]", "nM", 345],
  ["ACAGGAUCGAAAGAUCCUGAGCAGUCUAACCGAGGACCGGUACGGCCGCCACUCGGAGUGAUGUUCCGAGGACUGCAAAAUAAAA [#SwitchBubble 2 #CoaxialStacking]", "nM", 329],
  ["AAUAUAGUGAUGUUAUAUAAGAAGGAGUUACGAGGACCGGUACGGCCGCCACUCGAAACGAGUGAGGGUUUGGGAGAUUGGGCCC [SSTryptA.J]", "nM", 322],
  ["GCUACCUAUGCAGGAUAUGGUAUUACGAGUGAUGUUCGAGGCAUAUAGAGUGAUGUUCUAUAUCCACCAGAAGGGCAUAGGUAGC", "nM", 162],
  ["UGUGUUUACCUGACCCAGUGAUGUUGGGAAGGAGCGUGCGAAAGCACAGGUAGGUCGCUCAACCUAAAGUCAGGUGAGCACUAAA [#SwitchBubble 9 #K4Early]", "nM", 470],
  ["GUUUGGCUCCGAAGACGGCAGUGGGAAAUAUAGGAUAUCUAGAAAUAGAGAAGGAUACUAGUGAUGUUAGUAUCGGAUAAAACAA", "nM", 83.7],
  ["CUAUGGGUGGACGAUACCAGCUAGUGAUGUUAGCGGGUCGAGCACGCGCAUCGCCGUGGUAGCCCUUGGCAGCGUACAGAUGUUU [theeternabot_exclusion_KL_Theo_B_5]", "nM", 157],
  ["UGACUGGAUGGAAGGAGCGCUAAACUCCUAGUGAUGUUAGGGAUACGAGACAAAGUCUUGAGGCAGGUAGGUCGCCAUCUAGUCU [FiskerMod 11 - Jieux - Same State - Arginine B]", "nM", 157],
  ["UGAUACCAGACGGCCGCCACUCCCGUAAGUCAAAGACUUACGAAGAAGGUUUUUUAGUGAUGUUGGAGGACCGGGUCUGGUAUCU [FiskerMod 19 - Jieux - Exclusion - Tryptophan B]", "nM", 302],
  ["AGGAGCGUGCGAUGUAAAUCGCACGCUCCACGAGGACCGGUACGGCCGCCACUCGCUCGUGCAGAGUGAUGUUCUGCCGGCGAAU [#2 Same State - Tryptophan A Attempt #24 (HarryS)]", "nM", 248],
  ["CUUGUACAAGUGAUGUUUGUUAUAUCCGAAGGAGCGUCGUACUAGACAGGUAGGUCGCGGAUGAAGAUAGUUUUUUUAAUAUCAU [JR_Nu_SSArginiA_Sub028]", "nM", 648],
  ["GCCGUAGAUGGAAGGAGCGUGCGUGAAGUGAUGUUUCACGAAGAGUUUUCCACCUUAUAUGCACAGGUAGGUCGCCAUCUACGGC", "nM", 105],
  ["UUGGAUUGAUGAGAGUUGAUUUGGUAGGAAGGAGCGGCCGAAAGGCCAGGUAGGUCGCCUAUUGACAGUGAUGUUGUUAUAUGGU [#16]", "nM", 489],
  ["CAACUACCCGGAAGGAGCGCGGGUGUAAAUCAAAGGGCUUGAGUGAUGUUCAAGCGGAACCCGCAGGUAGGUCGCCGGGAAGCCC [Quaneson]", "nM", 114],
  ["UUCAGACUACUACUAGACAGUAGUAUAUACUAGGAUAUCCAGAUAUGGAGAAGGAGUGAUGUUCCCUAGUAGUAGUGAAUUAAAU [KL-XFMN-A5]", "nM", 375],
  ["AAUGUACAGGGAAGGAGCGUCGUCCAGUGAUGUUGGAGUUAAAUACCAGUGAUGUUGGUUAGACAGGUAGGUCGCCCUAAAGUGC [Exclusion Arginine B Gf 3]", "nM", 95],
  ["AUGACAGAAUCGGCCGCCACUCAUUGUCCUGUGGACAUUCUAGGAUUAGUGAUGUUUUUCCCAUCGAGGACCGGGAUACAGAUUG [theeternabot_sameState_KL_Trp_B_6]", "nM", 398],
  ["UGACGUAAAACCGUCGAAUCGCUGUGAGAAGGAGCGGUAAAAUUGCCAGGUAGGUCGCUCACAGCCUCACAGUGAUGUUGUGGGA [Sovetequ]", "nM", 199],
  ["UGUCAUUGGUCUGAUACCAGCUGAUCGGAAACGAUCUUGCUGGAGUGAUGUUCCAGGAAAAGCCCUUGGCAGCAGACCGAUGACU [TheoBS 10 #SwitchBubble #StaticStem]", "nM", 1100],
  ["GGGAGUGAUGUUCCCACGUUGUCGGUCCUUCGAGGACCGGUACGGCCGCCACUCGCGACCCAGUGAUGUUGGGAUUCACCGUACC [Exclusion Tryptophan A Gf 13]", "nM", 506],
  ["AAUUUAUAUUUAUUCUUUAAAUGUUCAGAAGGAGCGUGAAUUAUCACAGGUAGGUCGCUGGGCUAGUGAUGUUGGCUAUAUACUA [whbob_Ex_Arginine_A_2t125]", "nM", 196]
]}
